B1: glmS ribozyme (parent)
chain: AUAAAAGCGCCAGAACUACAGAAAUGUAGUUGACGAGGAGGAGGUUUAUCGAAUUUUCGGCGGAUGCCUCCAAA

Variants of: B1
method.notes: self-cleavage kobs at 40 uM GlcN6P; higher = faster cleavage; RNA array
reported.conditions: with glucosamine-6-phosphate
This sample holds only a part of the variants without activity.
Item-by-item account of self-cleavage kobs at 40 uM GlcN6P
experimental.endpoint: self-cleavage kobs at 40 uM GlcN6P

mutant.name	result
G7U G60U	< 1e-05 s⁻¹
G13C C16U C67A	< 1e-05 s⁻¹
G51U A53C	< 1e-05 s⁻¹
G41A G43C U49A C50G C58A	< 1e-05 s⁻¹
C16U U30A C58G A73U	< 1e-05 s⁻¹
U2A A3U C50A	< 1e-05 s⁻¹
C8A C11G	< 1e-05 s⁻¹
A12G C50U	< 1e-05 s⁻¹
A36C G43U	< 1e-05 s⁻¹
C50G C58A G62C G63C C70A	4.49e-05 s⁻¹
G60U A64U	< 1e-05 s⁻¹
A15G U47A	0.000718 s⁻¹
U46G C70U	0.000256 s⁻¹
U47A U57G C58U C70U	< 1e-05 s⁻¹
C10U A14G A15G G43A U45G A52G A64G	< 1e-05 s⁻¹
A15G A64U C68U	< 1e-05 s⁻¹
U31G C50U	< 1e-05 s⁻¹
C10U G40U C58A	< 1e-05 s⁻¹
A42C G66C	< 1e-05 s⁻¹
